- target.under.test: NA transporter (Rattus norvegicus)
- Construct: synaptosomes from rat brain regions were freshly isolated; from tissue; host or cells: P2 synaptosome fraction from hypothalamus of male rat brain
- Sequence (Q9WTR4 1-597): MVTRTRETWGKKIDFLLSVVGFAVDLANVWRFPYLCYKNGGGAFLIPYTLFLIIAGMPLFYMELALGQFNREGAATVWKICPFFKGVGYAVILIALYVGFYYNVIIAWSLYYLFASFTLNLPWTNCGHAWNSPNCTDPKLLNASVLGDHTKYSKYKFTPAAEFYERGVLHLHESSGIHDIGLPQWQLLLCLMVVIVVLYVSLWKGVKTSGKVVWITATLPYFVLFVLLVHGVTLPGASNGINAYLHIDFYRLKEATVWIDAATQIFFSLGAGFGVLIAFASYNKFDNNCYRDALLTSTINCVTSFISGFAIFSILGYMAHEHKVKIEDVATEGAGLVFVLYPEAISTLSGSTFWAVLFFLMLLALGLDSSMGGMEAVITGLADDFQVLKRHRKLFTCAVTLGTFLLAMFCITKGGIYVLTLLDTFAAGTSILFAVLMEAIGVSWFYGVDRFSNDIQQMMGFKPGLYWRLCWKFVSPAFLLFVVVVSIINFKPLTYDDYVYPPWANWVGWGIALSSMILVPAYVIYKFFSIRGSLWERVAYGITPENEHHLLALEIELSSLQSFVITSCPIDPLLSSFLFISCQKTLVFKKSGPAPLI
- assay.explanation: Noradrenalin uptake inhibition (NA-uptake) in synaptosomes
- Assay type: biochemical
- experimental.context: rat hypothalamus synaptosomes
measured.endpoint: NA-uptake, 10 μM, % inhibition (%)
Express it in %; write the number only.

Q: Any idea what its NA-uptake, 10 μM, % inhibition is? The compound is O=C(Nc1ccccc1)C1=NOC2(CCN(C(=O)c3ccc(Br)cc3)CC2)C1
Result: 51

Q: Repeat for the following compound: CC1CCCCN1CCCNC(=O)C1=NOC2(CCN(S(=O)(=O)c3cc(Cl)ccc3Cl)CC2)C1 (stereo not shown)
Result: 41

Q: Lookup COc1ccc(S(=O)(=O)N2CCC3(CC2)CC(C(=O)NCCc2ccccc2F)=NO3)cc1
Result: 49

Q: And what about the compound O=C(NCCN1CCCC1)C1=NOC2(CCN(S(=O)(=O)c3ccc(F)c(Cl)c3)CC2)C1 ?
Result: 41

These entries and their values trace back to patent US8557796B2.
